Target: c-Src SH2
Test: SH2 binding enrichment of the phosphorylated peptide, bacterial display (enrichment ratio); higher = better substrate or ligand; peptides without Tyr show the background
Property: SH2 binding enrichment; scope: individual sequences
Keep it simple and answer with nothing but the number.

Look over these answered cases.
{"columns": ["Chain", "SH2 binding enrichment"],
 "data": [
  ["FQKDVYDIPPS [NEDD9_Y177_YF]", 0.466],
  ["TNDMRYPMKSE [TGDS_Y302]", 0.548],
  ["KYLENYYDLEK [MMP3_Y41_K45E]", 1.08]
]}

// query Given RQSRNYLGGFA [SYK_Y47] , report its SH2 binding enrichment on c-Src SH2.
// result 0.407

// query Provide SH2 binding enrichment, recorded with c-Src SH2, of TKQLTYEEQDL [PIK3C3_Y310]
// result 0.541

// query Provide measured SH2 binding enrichment on c-Src SH2 for AVLALHNSTRD [TGFB1_Y81_Y81H] please.
// result 0.517

// query Report measured SH2 binding enrichment on c-Src SH2; entry: MEKEKYVSFIS [JMJD1C_Y596_YF]
// result 0.785

// query // fetch SH2 binding enrichment for GVASDYKCIDP [VPS13B_Y1991] ; system: c-Src SH2
// result 0.65

// query Provide the reported SH2 binding enrichment (system: c-Src SH2) for YLRTGYSVPYG [TGM1_Y370]
// result 9.92

// query Report SH2 binding enrichment under test system c-Src SH2 for SVTWTYSPALN [TP53_Y126_C124W] .
// result 0.319

// query State SH2 binding enrichment on c-Src SH2. Entry: NEKNIYRVPLM [BMPR2_Y247]
// result 0.508

----------
Biological target: c-Src SH2;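 also: peptide library displayed on the E. coli surface as eCPX fusions, selected cells deep-sequenced, score is each peptide's frequency after selection divided by its frequency in the input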
Experiment: SH2 binding enrichment of the phosphorylated peptide, bacterial display (enrichment ratio); higher = better substrate or ligand; peptides without Tyr show the background
Use SH2 binding enrichment to assign classes; range list: lower level (below 0.6), middle level (0.6 to below 0.8), upper level (0.8 or more)

// query Any idea which band QLQVFYATLDQ [MIPEP_Y579] is in?
// result upper level

----------
Target: Fyn (UniProt P06241)
Sequence (P06241 whole entry, looked up): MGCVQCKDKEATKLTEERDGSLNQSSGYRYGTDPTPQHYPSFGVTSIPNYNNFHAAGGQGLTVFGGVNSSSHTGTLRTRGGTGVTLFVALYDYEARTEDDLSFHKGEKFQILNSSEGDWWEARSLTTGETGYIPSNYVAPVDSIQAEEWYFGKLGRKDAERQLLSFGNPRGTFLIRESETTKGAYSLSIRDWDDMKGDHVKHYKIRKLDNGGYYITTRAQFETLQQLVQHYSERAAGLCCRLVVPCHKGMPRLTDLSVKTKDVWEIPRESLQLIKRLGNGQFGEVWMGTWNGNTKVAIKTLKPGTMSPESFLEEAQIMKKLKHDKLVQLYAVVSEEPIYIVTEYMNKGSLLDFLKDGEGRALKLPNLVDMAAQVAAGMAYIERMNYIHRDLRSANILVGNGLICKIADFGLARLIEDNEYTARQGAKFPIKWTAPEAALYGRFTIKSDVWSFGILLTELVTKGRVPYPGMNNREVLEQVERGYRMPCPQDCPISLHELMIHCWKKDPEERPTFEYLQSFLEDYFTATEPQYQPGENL
Test: phosphorylation enrichment, bacterial display (enrichment ratio); higher = better substrate or ligand; peptides without Tyr show the background
Readout Kind: phosphorylation enrichment

{"columns": ["Chain", "Recorded Value"],
 "data": [
  ["QTLTDYDTRFY [CSNK2A3_Y131_I133T]", 0.556],
  ["QERPEYWDQET [HLA-A_Y83_G80R]", 0.646],
  ["RLLVVYPWTQK [HBG1_Y36_R41K]", 0.508],
  ["FRAVKYLQMVG [AVPR2_Y117_C112Y_YF]", 0.397],
  ["TEQDPYNNIDR [MMUT_Y364_V368D]", 0.505],
  ["PNQRRYVYYYS [PTEN_Y174_S170N]", 1.86]
]}

# input for lookup
// query GET phosphorylation enrichment where system = Fyn (UniProt P06241) and item = SVNCTYSPALN [TP53_Y126_T123N]
// result 0.735

----------
Reported phosphorylation enrichment values for a set of sequences
Target: Hck (UniProt P08631)
Sequence (P08631 whole entry, looked up): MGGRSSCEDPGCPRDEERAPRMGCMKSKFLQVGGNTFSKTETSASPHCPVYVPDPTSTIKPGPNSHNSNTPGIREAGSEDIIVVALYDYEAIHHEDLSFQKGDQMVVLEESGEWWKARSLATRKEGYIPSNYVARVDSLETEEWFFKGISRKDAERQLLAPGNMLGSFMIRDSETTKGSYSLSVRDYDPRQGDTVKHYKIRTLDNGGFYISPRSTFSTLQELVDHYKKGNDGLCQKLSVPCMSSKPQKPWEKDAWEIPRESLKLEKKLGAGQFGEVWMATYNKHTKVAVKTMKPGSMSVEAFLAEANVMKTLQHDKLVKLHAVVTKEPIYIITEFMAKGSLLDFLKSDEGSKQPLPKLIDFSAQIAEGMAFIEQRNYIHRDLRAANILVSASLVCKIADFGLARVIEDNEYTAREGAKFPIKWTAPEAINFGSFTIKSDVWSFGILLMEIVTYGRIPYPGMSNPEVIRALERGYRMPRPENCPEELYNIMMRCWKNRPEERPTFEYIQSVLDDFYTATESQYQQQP
Assay: phosphorylation enrichment, bacterial display (enrichment ratio); higher = better substrate or ligand; peptides without Tyr show the background
The answer should be a number; do not append a unit.

{"columns": ["Chain", "Subject Of Test", "Recorded Value"],
 "data": [
  ["KDGNGYISVAE [CALM3_Y100_A103V]", "Hck (UniProt P08631)", 0.462],
  ["LSEEKYELKEG [TREM1_Y29_T25S]", "Hck (UniProt P08631)", 0.513],
  ["SKNFTYIWWLN [PSG4_Y271_YF]", "Hck (UniProt P08631)", 0.435],
  ["EFRFIYMAVQH [PTPN11_Y515_Q510E_YF]", "Hck (UniProt P08631)", 1.63],
  ["CTTIHFNFMCN [TP53_Y234_Y234F_YF]", "Hck (UniProt P08631)", 0.582]
]}

// query For PKGIRYGQGAG [CSRP3_Y73_G72R] , write its phosphorylation enrichment.
// result 0.587

// query Report measured phosphorylation enrichment; entry is MEKEKYVSYIS [JMJD1C_Y596]
// result 0.442

// query Identify measured phosphorylation enrichment corresponding to MEFLPYGSLRD [JAK2_Y934_YF]
// result 2.29

Cited source: the supplement of paper PMC10065799
